Tested on: 556581-035-R-J1-PDC complex spheroid growth;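 further: spheroids exposed to agents for 7 days before viability read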
METHOD: Anticancer human tumor 556581-035-R-J1-PDC patient-derived ovarian carcinoma cell line growth inhibition [Asc]
REPORTED_CONDITIONS: curve of compound
pIC50: −log10 of the molar value.
OBSERVATION_TYPE: pIC50

Worked examples follow.
{"columns": ["MOLECULE", "pIC50"],
 "data": [
  ["O=C(c1cc(Cc2n[nH]c(=O)c3ccccc23)ccc1F)N1CCN(C(=O)C2CC2)CC1", "< 5.00"],
  ["CCN1CCN(Cc2ccc(Nc3ncc(F)c(-c4cc(F)c5nc(C)n(C(C)C)c5c4)n3)nc2)CC1", "< 6.00"]
]}

Turning now to a further molecule:
State the recorded pIC50 for this entry: CNC(C)C(=O)NC1CN(S(=O)(=O)c2cccc(S(=O)(=O)N3CCC4CCC(C(=O)NC(c5ccccc5)c5ccccc5)N4C(=O)C(NC(=O)C(C)NC)C3)c2)CCC2CCC(C(=O)NC(c3ccccc3)c3ccccc3)N2C1=O (stereo not drawn)
< 6.00
